Recorded values, source the Immune Epitope Database (IEDB).

- Measurement target: HLA-A*29:02
- Protocol summary: IEDB peptide-MHC binding, purified MHC/competitive/radioactivity; filed as Kd, often an IC50 or EC50 that approximates it; bounds were set here for any values at or beyond the usual limits of such assays
- Run conditions: source organism: Mammarenavirus choriomeningitidis

{"columns": ["Construct sequence", "Kd [µM]"],
 "data": [
  ["VTERIFREY", 8.69]
]}

----------
- Measurement target: HLA-C*04:01
- Protocol summary: IEDB peptide-MHC binding, purified MHC/competitive/fluorescence; filed as Kd, often an IC50 or EC50 that approximates it; bounds were set here for any values at or beyond the usual limits of such assays
- Run conditions: source organism: Yersinia pestis Nepal516

{"columns": ["Construct sequence", "Kd, nM"],
 "data": [
  ["FYFNWNTPI", 300]
]}
